- Target or test system: Polyphenol oxidase 2 (Agaricus bisporus, UniProt O42713)
- Sequence (O42713 whole entry): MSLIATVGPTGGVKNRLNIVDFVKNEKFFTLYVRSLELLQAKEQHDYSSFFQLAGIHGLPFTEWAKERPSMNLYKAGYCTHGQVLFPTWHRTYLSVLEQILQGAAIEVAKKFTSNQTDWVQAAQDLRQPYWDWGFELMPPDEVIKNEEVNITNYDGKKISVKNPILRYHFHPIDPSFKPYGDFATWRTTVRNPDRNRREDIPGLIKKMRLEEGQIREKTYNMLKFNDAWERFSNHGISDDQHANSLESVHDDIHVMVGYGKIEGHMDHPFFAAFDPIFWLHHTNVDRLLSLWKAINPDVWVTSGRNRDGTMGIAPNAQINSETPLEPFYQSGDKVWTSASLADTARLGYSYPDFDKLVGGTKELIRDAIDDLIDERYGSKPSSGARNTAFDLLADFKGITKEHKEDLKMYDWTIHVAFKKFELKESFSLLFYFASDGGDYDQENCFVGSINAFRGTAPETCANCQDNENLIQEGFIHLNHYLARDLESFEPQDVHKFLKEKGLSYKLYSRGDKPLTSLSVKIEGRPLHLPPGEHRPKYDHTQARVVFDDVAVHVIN
Readout name: IC50

// molecule CC(C)=CCc1c(-c2ccc(O)cc2O)oc2c3c(cc(O)c2c1=O)OC(C)(C)C=C3 , assay Polyphenol oxidase 2 (Agaricus bisporus, UniProt O42713), IC50 value: > 300 µM
